- TARGET_OF_ASSAY: T1, recombinant human IL-31 (as used in the NHK STAT3 phosphorylation assay of Example 5) (human, UniProt Q6EBC2 24-164, limits assumed)
- T1 sequence: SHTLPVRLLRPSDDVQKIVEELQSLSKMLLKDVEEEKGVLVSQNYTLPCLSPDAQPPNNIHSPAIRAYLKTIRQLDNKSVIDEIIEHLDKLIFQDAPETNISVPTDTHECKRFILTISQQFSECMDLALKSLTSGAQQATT
- PROCEDURE_DETAILS: cell-based or functional assay
PARAMETER_MEASURED: IC50, IL-31-induced STAT3 phosphorylation in NHK, Exp 9 (nM)
Kindly provide the numeric value in nM only, without the unit symbol.

Previously resolved entries follow.
BINDER	NUMERIC_RESULT
humanized 292.12.3.1 construct clone 29 (12VH1-gly + HC(F29L, T73K, R94F) + LC(F71Y)) (antibody, human IgG4, V domains shown) VH: QVQLVQSGAEVKKPGASVKVSCKASGYTLTRYWMQWVRQAPGQGLEWMGAIYPGDGDTRYSQKFQGRVTMTRDKSISTVYMELSSLRSEDTAVYYCAFPDGYYAAPYGMDYWGQGTLVTVSS VL: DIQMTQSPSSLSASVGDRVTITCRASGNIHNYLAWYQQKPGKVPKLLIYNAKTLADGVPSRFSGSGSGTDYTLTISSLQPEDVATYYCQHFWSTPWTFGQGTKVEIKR	5.37
humanized 292.12.3.1 construct clone 31 (12VH1-gly + HC(F29L, M69L, R71A, V78A, R94F) + LC(F71Y)) (antibody, human IgG4, V domains shown) VH: QVQLVQSGAEVKKPGASVKVSCKASGYTLTRYWMQWVRQAPGQGLEWMGAIYPGDGDTRYSQKFQGRVTLTADTSISTAYMELSSLRSEDTAVYYCAFPDGYYAAPYGMDYWGQGTLVTVSS VL: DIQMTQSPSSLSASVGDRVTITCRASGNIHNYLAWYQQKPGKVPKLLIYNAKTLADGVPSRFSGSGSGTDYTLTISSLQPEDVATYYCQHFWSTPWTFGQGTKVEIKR	7.82
humanized 292.12.3.1 construct clone 26 (12VH1-gly + HC(fback) + LC(F71Y)) (antibody, human IgG4, V domains shown) VH: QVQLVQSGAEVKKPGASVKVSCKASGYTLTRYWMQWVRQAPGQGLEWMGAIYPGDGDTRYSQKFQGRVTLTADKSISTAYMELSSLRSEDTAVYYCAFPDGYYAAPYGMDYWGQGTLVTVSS VL: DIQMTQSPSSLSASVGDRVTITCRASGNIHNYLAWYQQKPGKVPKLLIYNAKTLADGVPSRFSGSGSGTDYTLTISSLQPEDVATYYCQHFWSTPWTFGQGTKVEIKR	6.93

For reference, reported IC50, IL-31-induced STAT3 phosphorylation in NHK, Exp 9 for humanized 292.12.3.1 construct clone 27 (12VH1-gly + HC(F29L, M69L, R94F) + LC(F71Y)) (antibody, human IgG4, V domains shown) VH: QVQLVQSGAEVKKPGASVKVSCKASGYTLTRYWMQWVRQAPGQGLEWMGAIYPGDGDTRYSQKFQGRVTLTRDTSISTVYMELSSLRSEDTAVYYCAFPDGYYAAPYGMDYWGQGTLVTVSS VL: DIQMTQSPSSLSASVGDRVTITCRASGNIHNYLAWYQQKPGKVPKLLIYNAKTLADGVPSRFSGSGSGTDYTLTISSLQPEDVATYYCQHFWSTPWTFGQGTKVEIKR stands at 9.59

For reference, reported IC50, IL-31-induced STAT3 phosphorylation in NHK, Exp 9 for humanized 292.12.3.1 construct clone 25 (12VH1-gly + HC(F29L, R94F) + LC(F71Y)) (antibody, human IgG4, V domains shown) VH: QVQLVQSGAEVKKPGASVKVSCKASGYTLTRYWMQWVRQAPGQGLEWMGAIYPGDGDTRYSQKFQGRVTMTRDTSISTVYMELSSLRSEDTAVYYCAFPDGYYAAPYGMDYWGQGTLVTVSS VL: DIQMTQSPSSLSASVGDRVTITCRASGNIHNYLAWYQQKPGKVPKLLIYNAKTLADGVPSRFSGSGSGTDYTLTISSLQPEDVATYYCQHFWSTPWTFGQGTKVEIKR stands at 7.28

For reference, reported IC50, IL-31-induced STAT3 phosphorylation in NHK, Exp 9 for humanized 292.12.3.1 construct clone 30 (12VH1-gly + HC(F29L, V78A, R94F) + LC(F71Y)) (antibody, human IgG4, V domains shown) VH: QVQLVQSGAEVKKPGASVKVSCKASGYTLTRYWMQWVRQAPGQGLEWMGAIYPGDGDTRYSQKFQGRVTMTRDTSISTAYMELSSLRSEDTAVYYCAFPDGYYAAPYGMDYWGQGTLVTVSS VL: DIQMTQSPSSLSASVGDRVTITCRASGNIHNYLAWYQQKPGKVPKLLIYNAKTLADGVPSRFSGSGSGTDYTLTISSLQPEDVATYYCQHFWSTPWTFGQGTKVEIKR stands at 8.71

These measurements were taken from patent US20200262913A1.
